# medrep (log2 median colony size normalized to plate background, PCA score) values compiled below
Test system: BEM1-1
Assay: DHFR-PCA on solid medium, bait BEM1-1 (Fig. 1B)
Assay type: cell-based, Saccharomyces cerevisiae
Conditions: bait BEM1-1, label = prey; 2-8 replicates
endpoint: medrep (log2 median colony size normalized to plate background, PCA score)

>>> meas_value("YCR002C (protein, UniProt P25342 1-322, looked up) Cell division control protein …: MDPLSSVQPASYVGFDTITNQIEHRLLKKGFQFNIMVVGQSGLGKSTLINTLFASHLIDSATGDDISALPVTKTTEMKISTHTLVEDRVRLNINVIDTPGFGDFIDNSKAWEPIVKYIKEQHSQYLRKELTAQRERFITDTRVHAILYFLQPNGKELSRLDVEALKRLTEIANVIPVIGKSDTLTLDERTEFRELIQNEFEKYNFKIYPYDSEELTDEELELNRSVRSIIPFAVVGSENEIEINGETFRGRKTRWSAINVEDINQCDFVYLREFLIRTHLQDLIETTSYIHYEGFRARQLIALKENANSRSSAHMSSNAIQR")
3.007
>>> meas_value("YOL147C (protein, UniProt Q12462 2-236, looked up) Peroxisomal membrane protein …: VCDTLVYHPSVTRFVKFLDGSAGREKVLRLLQYLARFLAVQNSSLLARQLQAQFTTVRKFLRFLKPLNHLQAAAKFYDNKLASDNVVRVCNVLKNIFFAAYLSLDQVNLLRILKVIPVTVLTGKKIPRWSNWCWLFGLLSGLAMDLRKIQTSHAQIAAFVKAKSQSQGDEHEDHKKVLGKAYQDRYTALRRLFWDAADSFIVLNNLGYLSSNEEYVALSGVVTSILGMQDMWKAT")
4.705

Numbers sourced from paper PMC7954794.
